B1: CDC14A (parent)
chain: GPHPKSKIENGYPLHAPEAYFPYF

Variants of: B1
Experiment description: protein stability index of a GFP-peptide fusion (GPS, HEK-293T) (PSI 1-6); higher = more stable;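 also: lentivirally expressed fusions sorted by FACS into six bins by GFP to DsRed ratio, PSI derived from sequencing read proportions per bin multiplied by bin number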
Study conditions: c terminus: a fixed tail appended
Recorded protein stability index by entry
Just the number, please, no unit after it.

Here is how some variants turned out for protein stability index.
{"Mutant label": "N10C", "protein stability index": 2.05}
{"Mutant label": "E9C", "protein stability index": 2.09}

Bench note: what protein stability index did K5Y show?
1.66
